experimentSummary: Cytotoxicity against human TZM-b1 cells after 2 days
Assay type: cell-based
conditionParameters: read-out: TC50

{"columns": ["givenSmiles", "limitQualifier", "CC50 at 48 h (µM)"],
 "data": [
  ["C=C(C)[C@@H]1CC[C@]2(C(=O)NCCCCCCCCNC(C)=O)CC[C@]3(C)[C@H](CC[C@@H]4[C@@]5(C)CC[C@H](O)C(C)(C)[C@@H]5CC[C@]43C)[C@@H]12", ">", 64],
  ["C=C(C)[C@@H]1CC[C@]2(C(=O)NCCCCCC(=O)N3CCC[C@H]3C(=O)O)CC[C@]3(C)[C@H](CC[C@@H]4[C@@]5(C)CC[C@H](O)C(C)(C)[C@@H]5CC[C@]43C)[C@@H]12", ">", 60],
  ["C=C(C)[C@@H]1CC[C@]2(C(=O)NCCCCCCC(=O)O)CC[C@]3(C)[C@H](CC[C@@H]4[C@@]5(C)CC[C@H](O)C(C)(C)[C@@H]5CC[C@]43C)[C@@H]12", "=", 36.2],
  ["C=C(C)[C@@H]1CC[C@]2(C(=O)NCCCCCNC(C)=O)CC[C@]3(C)[C@H](CC[C@@H]4[C@@]5(C)CC[C@H](O)C(C)(C)[C@@H]5CC[C@]43C)[C@@H]12", "=", 13.9],
  ["C=C(C)[C@@H]1CC[C@]2(C(=O)NCCCCCC(=O)N[C@@H](C)C(=O)O)CC[C@]3(C)[C@H](CC[C@@H]4[C@@]5(C)CC[C@H](O)C(C)(C)[C@@H]5CC[C@]43C)[C@@H]12", ">", 63],
  ["C=C(C)[C@@H]1CC[C@]2(C(=O)NCCCCCCNC(=O)CC(=O)O)CC[C@]3(C)[C@H](CC[C@@H]4[C@@]5(C)CC[C@H](O)C(C)(C)[C@@H]5CC[C@]43C)[C@@H]12", "=", 34.6],
  ["C=C(C)[C@@H]1CC[C@]2(C(=O)NCCCCCCCNC(C)=O)CC[C@]3(C)[C@H](CC[C@@H]4[C@@]5(C)CC[C@H](O)C(C)(C)[C@@H]5CC[C@]43C)[C@@H]12", ">", 66],
  ["C=C(C)[C@@H]1CC[C@]2(C(=O)NCCCCCCC(=O)NCC(=O)O)CC[C@]3(C)[C@H](CC[C@@H]4[C@@]5(C)CC[C@H](O)C(C)(C)[C@@H]5CC[C@]43C)[C@@H]12", ">", 63],
  ["C=C(C)[C@@H]1CC[C@]2(C(=O)NCCCC(=O)O)CC[C@]3(C)[C@H](CC[C@@H]4[C@@]5(C)CC[C@H](O)C(C)(C)[C@@H]5CC[C@]43C)[C@@H]12", "=", 31.2],
  ["C=C(C)[C@@H]1CC[C@]2(C(=O)NCCCCC(=O)O)CC[C@]3(C)[C@H](CC[C@@H]4[C@@]5(C)CC[C@H](O)C(C)(C)[C@@H]5CC[C@]43C)[C@@H]12", ">", 72]
]}

###

experimentSummary: Selectivity index, ratio of TC50 for human TZM-b1 cells to IC50 for HIV1 NL4-3 infected in human TZM-b1 cells
Format: toxicity, cell-based
conditionParameters: TZM-b1 cells infected with HIV1 NL4-3, read-out: Selectivity Index
Overview of recorded selectivity ratio for various molecules

{"columns": ["givenSmiles", "selectivity ratio"],
 "data": [
  ["C=C(C)[C@@H]1CC[C@]2(C(=O)O)CC[C@]3(C)[C@H](CC[C@@H]4[C@@]5(C)CC[C@H](O)C(C)(C)[C@@H]5CC[C@]43C)[C@@H]12", "< 2"],
  ["C=C(C)[C@@H]1CC[C@]2(C(=O)NCCCCCC(=O)N[C@@H](Cc3ccc(O)cc3)C(=O)O)CC[C@]3(C)[C@H](CC[C@@H]4[C@@]5(C)CC[C@H](O)C(C)(C)[C@@H]5CC[C@]43C)[C@@H]12", "< 2"],
  ["C=C(C)[C@@H]1CC[C@]2(C(=O)NCCCC(=O)NCC(=O)O)CC[C@]3(C)[C@H](CC[C@@H]4[C@@]5(C)CC[C@H](O)C(C)(C)[C@@H]5CC[C@]43C)[C@@H]12", "< 2"],
  ["C=C(C)[C@@H]1CC[C@]2(C(=O)NCCCCCNC(C)=O)CC[C@]3(C)[C@H](CC[C@@H]4[C@@]5(C)CC[C@H](O)C(C)(C)[C@@H]5CC[C@]43C)[C@@H]12", "< 2"],
  ["C=C(C)[C@@H]1CC[C@]2(C(=O)NCCCCC(=O)NCC(=O)O)CC[C@]3(C)[C@H](CC[C@@H]4[C@@]5(C)CC[C@H](O)C(C)(C)[C@@H]5CC[C@]43C)[C@@H]12", "< 2"],
  ["C=C(C)[C@@H]1CC[C@]2(C(=O)NCCCC(=O)O)CC[C@]3(C)[C@H](CC[C@@H]4[C@@]5(C)CC[C@H](O)C(C)(C)[C@@H]5CC[C@]43C)[C@@H]12", "< 2"]
]}
